Entry source: patent US20250041300A1

# System: Mino-ven-R cells
# experiment_notes: CellTiter-Glo Luminescent Cell viability Assay, abemaciclib single agent
# Format: cell-based
# condition_info: 72h, acquired venetoclax resistance
observable: pIC50
The value called pIC50 is obtained by taking minus log10 of the concentration in mol/L.

Query: Give the measured pIC50 for CCN1CCN(Cc2ccc(Nc3ncc(F)c(-c4cc(F)c5nc(C)n(C(C)C)c5c4)n3)nc2)CC1 [abemaciclib]
Reply: 5.22
